Biological target: F508delCFTR (Homo sapiens, UniProt P13569, DEL508-508)
Construct: expressed in transfected cells; host or cells: CFBE41o- human lung-derived epithelial cells (CFBE4lo-F508delCFTR-HRP), doxycycline-inducible
Sequence (P13569 with tags, fused parts or gaps DEL508-508): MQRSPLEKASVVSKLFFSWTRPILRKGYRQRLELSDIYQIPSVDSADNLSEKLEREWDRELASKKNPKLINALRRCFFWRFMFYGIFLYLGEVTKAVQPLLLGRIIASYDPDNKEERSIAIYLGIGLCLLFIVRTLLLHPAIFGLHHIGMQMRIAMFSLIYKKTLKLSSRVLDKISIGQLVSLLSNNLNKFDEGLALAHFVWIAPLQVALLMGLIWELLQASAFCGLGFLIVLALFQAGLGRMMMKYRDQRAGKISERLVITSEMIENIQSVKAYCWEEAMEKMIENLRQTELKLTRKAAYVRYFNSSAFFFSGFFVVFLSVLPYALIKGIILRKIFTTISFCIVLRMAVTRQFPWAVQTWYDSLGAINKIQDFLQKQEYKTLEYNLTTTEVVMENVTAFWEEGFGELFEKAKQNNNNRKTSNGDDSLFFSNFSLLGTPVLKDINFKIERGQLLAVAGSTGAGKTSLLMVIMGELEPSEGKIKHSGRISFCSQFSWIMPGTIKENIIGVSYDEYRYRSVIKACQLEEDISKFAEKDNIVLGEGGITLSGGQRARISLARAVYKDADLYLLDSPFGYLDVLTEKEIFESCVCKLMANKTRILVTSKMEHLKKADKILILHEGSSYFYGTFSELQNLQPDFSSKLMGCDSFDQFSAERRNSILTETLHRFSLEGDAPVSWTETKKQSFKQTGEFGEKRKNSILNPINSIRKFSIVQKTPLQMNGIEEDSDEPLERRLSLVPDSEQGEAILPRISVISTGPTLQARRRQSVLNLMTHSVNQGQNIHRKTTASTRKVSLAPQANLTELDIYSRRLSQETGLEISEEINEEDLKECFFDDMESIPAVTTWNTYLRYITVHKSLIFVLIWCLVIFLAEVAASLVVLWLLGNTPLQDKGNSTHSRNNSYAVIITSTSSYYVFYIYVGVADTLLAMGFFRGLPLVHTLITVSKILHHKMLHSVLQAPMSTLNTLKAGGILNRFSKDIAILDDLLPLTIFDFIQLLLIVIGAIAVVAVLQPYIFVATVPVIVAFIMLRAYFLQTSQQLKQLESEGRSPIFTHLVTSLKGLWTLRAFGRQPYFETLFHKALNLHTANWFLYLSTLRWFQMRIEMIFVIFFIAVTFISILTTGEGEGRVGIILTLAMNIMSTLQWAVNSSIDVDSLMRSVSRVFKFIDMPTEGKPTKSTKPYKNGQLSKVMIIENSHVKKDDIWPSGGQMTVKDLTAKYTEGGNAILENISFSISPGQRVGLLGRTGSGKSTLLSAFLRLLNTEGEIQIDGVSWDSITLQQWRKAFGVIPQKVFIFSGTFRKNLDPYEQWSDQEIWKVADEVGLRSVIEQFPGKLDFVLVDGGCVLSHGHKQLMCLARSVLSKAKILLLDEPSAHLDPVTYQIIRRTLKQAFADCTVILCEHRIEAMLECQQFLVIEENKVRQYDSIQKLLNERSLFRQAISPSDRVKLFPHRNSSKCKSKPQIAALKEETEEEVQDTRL
Test: Cell Surface Expression-Horse Radish Peroxidase (CSE-HRP) Assay
Format: cell-based
Details: with co-corrector (2 μM of 3-[(2R,4R)-4-({[1-(2,2-difluoro-1,3-benzodioxol-5-yl)cyclopropyl]carbonyl}amino)-7-methoxy-3,4-dihydro-2H-chromen-2-yl]benzoic acid); read-out: EC50 (with co-corrector)
Catalogue of EC50 values

{"Molecule": "COc1ccc(C(C)(C)C)cc1CN[C@H]1[C@H](C(C)(C)OC)[C@@H](C(=O)O)N(C(=O)C2CCCCC2)[C@H]1c1ccccc1 [Example I-61]", "EC50": "< 1000 nM"}
{"Molecule": "COc1ccc(C(C)(C)C)cc1CN[C@H]1[C@H](C(C)(C)C)[C@@H](C(=O)O)N(C(=O)[C@H]2C[C@@H]3CC[C@H]2O3)[C@H]1c1ccccc1 [II-543]", "EC50": "1000 to 10000 nM"}
{"Molecule": "COc1ncc(-c2ccc(F)cc2F)cc1CN[C@H]1[C@H](C(C)(C)C)[C@@H](C(=O)O)N(C(=O)C2CCCCC2)[C@H]1c1cccnc1N(C)C [II-406]", "EC50": "< 1000 nM"}
{"Molecule": "COc1ccc(C(C)(C)C)cc1CN[C@H]1[C@H](C(C)(C)C)[C@@H](C(=O)O)N(C(=O)C23CC(F)(C2)C3)[C@H]1c1ccccc1 [II-498]", "EC50": "1000 to 10000 nM"}
{"Molecule": "COc1ccc(C(C)(C)C)cc1CN[C@H]1[C@H](C(C)(C)C)[C@@H](C(=O)O)N(C(=O)C2Cc3ccccc3O2)[C@H]1c1cccnc1N(C)C (single isomer, unassigned) [II-421]", "EC50": "1000 to 10000 nM"}
{"Molecule": "COc1ncc(C(F)(F)F)cc1CN[C@H]1[C@H](C(C)(C)C)[C@@H](C(=O)O)N(C(=O)OC(C)C)[C@H]1c1ccccc1 [II-425]", "EC50": "1000 to 10000 nM"}

----------
Biological target: F508delCFTR (Homo sapiens, UniProt P13569, DEL508-508)
Construct: expressed in transfected cells; host or cells: CFBE41o- human lung-derived epithelial cells (CFBE4lo-F508delCFTR-HRP), doxycycline-inducible
Experiment: Cell Surface Expression-Horse Radish Peroxidase (CSE-HRP) Assay
Format: cell-based
Settings: with co-corrector (2 μM of 3-[(2R,4R)-4-({[1-(2,2-difluoro-1,3-benzodioxol-5-yl)cyclopropyl]carbonyl}amino)-7-methoxy-3,4-dihydro-2H-chromen-2-yl]benzoic acid); read-out: EC50 (with co-corrector)

{"Chemical Smiles": "COc1ccc(C(C)(C)C)cc1CN[C@H]1[C@H](C(C)(C)C)[C@@H](C(=O)O)N(C(=O)Cc2ccc(Cl)cc2)[C@H]1c1ccccc1", "EC50": "< 1 µM"}
{"Chemical Smiles": "COc1ncc(C(F)(F)F)cc1CN[C@H]1[C@H](C(C)(C)C)[C@@H](C(=O)O)N(C(=O)[C@@H]2CCCCO2)[C@H]1c1ccccc1C(C)C", "EC50": "< 1 µM"}
{"Chemical Smiles": "COc1ccc(C(C)(C)C)cc1CN[C@H]1[C@H](C(C)(C)C)[C@@H](C(=O)O)N(C(=O)C2CC2)[C@H]1c1ccccc1", "EC50": "1 to 10 µM"}
{"Chemical Smiles": "COc1ccc(C2(C)CCC2)cc1CN[C@H]1[C@H](C(C)(C)C)[C@@H](C(=O)O)N(C(=O)OC(C)C)[C@H]1c1cccnc1N(C)C", "EC50": "1 to 10 µM"}
{"Chemical Smiles": "COc1ncc(C(C)(C)C)cc1CN[C@H]1[C@H](C(C)(C)C)[C@@H](C(=O)O)N(C(=O)C2CCCCC2)[C@H]1c1ccc(F)cc1", "EC50": "< 1 µM"}
{"Chemical Smiles": "COc1ccc(C2(C)CCC2)cc1CN[C@H]1[C@H](C(C)(C)C)[C@@H](C(=O)O)N(C(=O)[C@@H]2CCCCO2)[C@H]1c1cccnc1OC", "EC50": "1 to 10 µM"}
